tested_system: T1, PARP4 BRCT F39Q (human, UniProt Q9UKK3 1-100, F39Q)
T1 sequence: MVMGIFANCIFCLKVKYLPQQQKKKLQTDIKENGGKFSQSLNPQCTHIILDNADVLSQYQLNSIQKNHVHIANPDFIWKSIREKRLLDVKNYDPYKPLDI
assay: EMSA; 20 nM probe; FP: 50 mM Tris pH 7.5, 50 mM NaCl, 1 mM MgCl2, 0.05% NP40, 2 mM DTT, 5% glycerol, 25 ug/ml BSA, room temp 30 min; EMSA: 50 mM Tris pH 7.5, 50 mM NaCl, 4% Ficoll PM400, 0.05% NP40, 2 mM DTT, 0-18 uM protein, room temp 30 min, gel at 4 C
stated_conditions: protein: recombinant; tags: N-terminal His-SUMO removed by TEV; label: 5'-6-FAM; predicted intramolecular fold
measurement_label: pKd
# pKd: negative log10 of molar concentration; output just the value

Query :: Can you look up the measured pKd of vtRNA1-3 (structured_RNA) RNA: GGCUGGCUUUAGCUCAGCGGUUACUUCGCGUGUCAUCAAACCACCUCUCUGGGUUGUUCGAGACCCGCGGGCGCUCUCCAGCCCUCUU for me?
Result :: 6.05
